The values you see were collected from patent US20060069132A1.

# System: pigweed
# Protocol description: Test C pre-/postemergence herbicide test
# Assay type: in vivo, Amaranthus retroflexus
# Condition label: Postemergence, 500 g ai/ha; scale 0 to 100
Catalogue of Pigweed plant response rating readings, one per entry.
Value type: Pigweed plant response rating

Chemical smiles	Value type	Reported value
CCOC(=O)c1cc(NC(=O)c2cc(C(C)(C)C)nn2CC)ccc1OC	Pigweed plant response rating	100
CC(=NO)c1cccc(NC(=O)c2cc(C(C)(C)C)nn2CCF)c1	Pigweed plant response rating	100
C#CCNC(=O)c1cccc(NC(=O)c2cc(C(C)(C)C)nn2CC)c1	Pigweed plant response rating	100
CCn1nc(C(C)(C)C)cc1C(=O)Nc1cccc(SC(F)(F)F)c1	Pigweed plant response rating	100

----------
Catalogue of Barnyardgrass plant response rating readings, one per entry.
# System: barnyardgrass
# Protocol description: Test B pre-/postemergence herbicide test
# Format: in vivo, Echinochloa crus-galli
# Condition label: 125 g ai/ha; visual rating, scale 0 (no effect) to 100 (complete control); postemergence
# Description: […] At the same time, plants selected from these crop and weed species and also blackgrass (Alopecurus myosuroides Huds.), wheat (Triticum aestivum L.) and wild oat (Avena fatua L.) were treated with postemergence applications of test chemicals formulated in the same manner. […] Treated plants and controls were maintained in a greenhouse for 13 to 15 days, after which time all species were compared to controls and visually evaluated. […]

Compound	Barnyardgrass plant response rating
CCOC(=O)c1ccc(F)c(NC(=O)C2CN(C(C)(C)C)N=C2CC)c1 (racemic)	0
CCn1nc(C(C)(C)C)cc1C(=O)Nc1cc(OCCF)ccc1F	0
CCC1=NN(C(C)(C)C)CC1C(=O)Nc1cc(C(=O)N(C)C)ccc1F (racemic)	10
CCc1nn(C(C)(C)C)nc1C(=S)Nc1cccc(C(=S)N(C)C)c1	10
Cc1nn(C(C)(C)C)nc1C(=O)Nc1cccc(C(=O)N2CC=CC2)c1	10
C#CCNC(=O)c1cccc(NC(=O)c2nn(C(C)(C)C)nc2C)c1	0
CCOC(=O)c1ccc(F)c(NC(=S)c2cc(C(C)(C)C)nn2CC)c1	20
CCNC(=O)c1ccc(F)c(NC(=O)c2nn(C(C)(C)CC)nc2CC)c1	0
Cc1nn(C(C)C)nc1C(=O)Nc1cccc(C(=O)N2CC=CC2)c1	10

----------
Catalogue of Lambsquarters plant response rating readings, one per entry.
# System: lambsquarters
# Protocol description: Test B pre-/postemergence herbicide test
# Assay type: in vivo, Chenopodium album
# Condition label: postemergence, 500 g ai/ha; scale 0 to 100, 0 is no effect, 100 is complete control

Molecule	Lambsquarters plant response rating
C=CCN(C)C(=O)c1cccc(NC(=O)c2cc(C(C)(C)C)nn2CC)c1	70
CCn1nc(C(C)(C)C)cc1C(=O)Nc1cc(C(=S)N(C)C)ccn1	90
CCc1nn(C(C)(C)C)cc1C(=O)Nc1ccc(F)c(C(=O)N(CC)CC)c1	50
CCNC(=O)c1ccc(F)c(NC(=O)c2c3c(nn2CC)C(C)(C)CC3)c1	40
CCN(C)C(=O)c1ccc(F)c(NC(=O)C2CC(C(C)(C)C)=NN2CC)c1 (racemic)	80
CCc1nn(C(C)(C)C)nc1C(=O)Nc1cc(C(=O)N(C)C)ccc1F	70
CCNC(=O)c1ccc(OC)c(NC(=O)c2cc(C(C)(C)C)nn2CC)n1	100
CCN(CC)C(=O)c1cc(NC(=O)c2cc(C(C)(C)C)nn2CC)c(F)cc1F	30
CCn1nc(C(C)(C)C)cc1C(=O)Nc1cc(OCCF)ccc1F	10
CCn1nc(C2(C)CC2)cc1C(=O)Nc1cccc(C(=O)N(C)C)c1	90

----------
# Test system: velvetleaf
# Protocol description: Test A pre-/postemergence herbicide test
# Format: in vivo, Abutilon theophrasti
# Condition label: Preemergence, 2000 g ai/ha; visual rating, 0 to 100 scale (0 no effect, 100 complete control)
Catalogue of Velvetleaf plant response rating readings, one per entry.

Chemical smiles	Velvetleaf plant response rating
CCCN1CCc2c(NC(=O)c3cc(C(C)(C)C)nn3CC)cccc2C1=O	30
CCn1nc(C(C)(C)C)cc1C(=O)Nc1cccc(C(=O)OCC(F)(F)F)c1	0
CCCCNS(=O)(=O)c1cccc(NC(=O)c2cc(C(C)(C)C)nn2C)c1	0
CCn1nc(C(C)(C)C)cc1C(=O)Nc1cc(C(=O)OC)cc(C)n1	10

----------
# Tested on: morningglory
# Protocol description: Test A pre-/postemergence herbicide test
# Format: in vivo, Ipomoea spp.
# Condition label: preemergence, 500 g ai/ha; visual injury, 0 to 100 scale (0 no effect, 100 complete control)
The label Met is reserved for Morningglory plant response rating strictly under 20; Not met covers values equal to or above it.

Chemical smiles	Target entity	Group
CCn1nc(C(C)(C)C)nc1C(=O)Nc1cccc(C(=O)N(C)C)c1	morningglory	Not met
C=CCNC(=O)c1cccc(NC(=O)c2sc(C(C)(C)C)nc2CC)c1	morningglory	Not met
CCNC(=O)c1cccc(NC(=O)c2sc(C(C)(C)C)nc2CC)c1	morningglory	Not met
C#CCOC(=O)c1cccc(NC(=O)c2cc(C(C)(C)C)nn2C)n1	morningglory	Met
CCc1nn(C2CCCC2)nc1C(=O)Nc1cccc(C(=O)N2CC=CC2)c1	morningglory	Met
CCNC(=O)c1cccc(NC(=O)c2sc(C(C)(C)C)nc2CC)n1	morningglory	Not met

----------
Catalogue of Cocklebur plant response rating readings, one per entry.
# Test system: cocklebur
# Protocol description: Test B pre-/postemergence herbicide test
# Type: in vivo, Xanthium strumarium
# Condition label: postemergence, 500 g ai/ha; visual rating, scale 0 (no effect) to 100 (complete control)
# Description: […] At the same time, plants selected from these crop and weed species and also blackgrass (Alopecurus myosuroides Huds.), wheat (Triticum aestivum L.) and wild oat (Avena fatua L.) were treated with postemergence applications of test chemicals formulated in the same manner. […] Treated plants and controls were maintained in a greenhouse for 13 to 15 days, after which time all species were compared to controls and visually evaluated. […]

Compound	Target entity	Cocklebur plant response rating
CCc1nc(C(C)(C)C)sc1C(=O)Nc1cccc(C(=O)N(C)C)c1 [Compound 228]	cocklebur	80
CCNC(=O)c1cccc(NC(=O)c2sc(C(C)(C)C)nc2C)c1 [Compound 198]	cocklebur	90
CCc1nc(C(C)(C)C)sc1C(=O)Nc1cccc(C(=O)NCC(C)C)c1 [Compound 211]	cocklebur	60
COC(=O)c1cccc(NC(=O)c2sc(C(C)(C)C)nc2C)c1 [Compound 197]	cocklebur	10
CCn1nc(C(C)(C)C)cc1C(=O)Nc1cccc(SC)c1 [Compound 131]	cocklebur	100
CCn1nc(C(C)(C)C)cc1C(=O)Nc1cccc(C(N)=O)n1 [Compound 162]	cocklebur	60
CCn1nc(C(C)(C)C)cc1C(=O)Nc1cncc(C(=O)N(C)C)c1 [Compound 258]	cocklebur	30
C=Cn1nc(C(C)(C)C)cc1C(=O)Nc1cccc(C(C)=O)c1 [Compound 127]	cocklebur	80
CCOC(=O)c1cc(N(C(C)=O)C(=O)c2cc(C(C)(C)C)nn2CC)ccc1C [Compound 141]	cocklebur	20
CCc1nc(C(C)(C)C)sc1C(=O)Nc1cc(C(=O)N(CC)CC)ccc1F [Compound 230]	cocklebur	10
CCn1nc(C(C)(C)C)cc1C(=O)Nc1cccc(C(=O)N2CCOCC2)n1 [Compound 247]	cocklebur	30

----------
# System: common ragweed
# Protocol description: Test C pre-/postemergence herbicide test
# Type: in vivo, Ambrosia elatior
# Parameters: key: 0 = no effect, 100 = complete control
# Condition label: 500 g ai/ha; scale 0 to 100 (0 no effect, 100 complete control); visual, 12 to 14 days; preemergence
Catalogue of Plant response rating, Ragweed readings, one per entry.

Molecule	Plant response rating, Ragweed
CCc1nn(C(C)(C)C)cc1C(=O)Nc1cc(C(=O)N(C)C)ccn1 [Compound 293]	100
Cc1nn(C(C)(C)C)nc1C(=O)Nc1cccc(C(=O)N2CC=CC2)c1 [Compound 393]	100
CCNC(=O)c1cccc(NC(=O)c2nn(C(C)(C)C)nc2C)c1 [Compound 392]	100
CCNC(=O)c1cccc(NC(=O)c2sc(C(C)(C)C)nc2CC)n1 [Compound 213]	0
CCC1=NN(C(C)(C)C)CC1C(=O)Nc1cc(C(=O)N(C)C)ccc1F (racemic) [Compound 343]	100
CCc1nn(C(C)(C)C)cc1C(=O)Nc1cc(C(=O)N(CC)CC)ccc1F [Compound 223]	100

----------
# Test system: wheat
# Protocol description: Test B postemergence herbicide test
# Type: in vivo, Triticum aestivum
# Parameters: key: 0 = no effect, 100 = complete control
# Condition label: postemergence, 500 g ai/ha; scale 0 to 100, 0 is no effect, 100 is complete control

Chemical smiles	Target entity	Wheat plant response rating
CCNC(=O)c1ccc(F)c(NC(=O)c2c3c(nn2CC)C(C)(C)CC3)c1	wheat	10
CCc1nn(C(C)(C)C)cc1C(=O)Nc1cc(C(=O)N(C)C)ccn1	wheat	30
CCn1nc(C(C)(C)C)cc1C(=O)Nc1cccc(C(=O)N2CCOCC2)n1	wheat	0
CCNC(=O)c1ccc(F)c(NC(=O)c2cn(C(C)(C)C)nc2C)c1	wheat	0
CCOC(=O)c1cc(NC(=O)c2cc(C(C)(C)C)nn2CC)c(F)cc1F	wheat	40
CCNC(=O)c1ccc(OC)c(NC(=O)c2cc(C(C)(C)C)nn2CC)n1	wheat	30
